System: experimental thrombosis, venous
Test: Venous thrombotic protection, experimental thrombosis in vivo (Harbauer)
Conditions: 10 mg/kg i.p.
Description: […]
MEASUREMENT TYPE: Thrombotic Protection % venous (rabbit)
Could you write the number and then its unit?

Solved cases below.
>  <COMPOUND>
O=C1CC(CO)C(c2ccc(Cl)cc2)=NN1 (stereo not shown) [drawing 44]

>  <REPORTED RESULT>
57%

$$$$
>  <COMPOUND>
O=C1CC(CO)C(c2ccc(OCCn3ccnc3)cc2)=NN1 (stereo not shown) [drawing 47]

>  <REPORTED RESULT>
86%

$$$$
>  <COMPOUND>
Cc1nnc(COc2ccc(C3=NNC(=O)CC3CO)cc2)o1 (stereo not shown) [drawing 45]

>  <REPORTED RESULT>
50%

$$$$

Kindly consider the entry below.
[in] Query: Thrombotic Protection % venous (rabbit); subject: O=C1CC(CO)C(c2ccc(N3CCCC3=O)cc2)=NN1 (stereo not shown) [drawing 48]
[out] 83%

----------
System: thrombocyte aggregation induced by ADP
Experiment: Inhibition of thrombocyte aggregation in vitro (Born), ADP
Type: cell-based
Conditions: induced by 10 μM ADP
The label y is reserved for IC50 strictly under 40 µM; n covers values equal to or above it.

Here are 6 compounds together with their reported answers.
>  <COMPOUND>
O=C1CC(CO)C(c2ccc(N3CCCC3=O)cc2)=NN1 (centres unmarked) [drawing 113]

>  <CLASS ASSIGNMENT>
y

$$$$
>  <COMPOUND>
Cc1nnc(COc2ccc(C3=NNC(=O)CC3CO)cc2)o1 (centres unmarked) [drawing 111]

>  <CLASS ASSIGNMENT>
y

$$$$
>  <COMPOUND>
COc1ccc(C2=NNC(=O)CC2CO)cc1 (centres unmarked) [drawing 107]

>  <CLASS ASSIGNMENT>
n

$$$$
>  <COMPOUND>
CC(=O)Nc1ccc(C2=NNC(=O)CC2CO)cc1 (centres unmarked) [drawing 109]

>  <CLASS ASSIGNMENT>
y

$$$$
>  <COMPOUND>
O=C1CC(CO)C(c2ccccc2)=NN1 (centres unmarked) [drawing 105]

>  <CLASS ASSIGNMENT>
n

$$$$
>  <COMPOUND>
Cc1ccc(C2=NNC(=O)CC2CO)cc1 (centres unmarked) [drawing 106]

>  <CLASS ASSIGNMENT>
n

$$$$

[in] Dear colleague, could you confirm whether IC50 of O=C1CC(CO)C(c2ccc(Cl)cc2)=NN1 (centres unmarked) [drawing 108] falls below 40 µM? Thanks.
[out] n

[in] Dear colleague, could you confirm whether IC50 of COc1ccc(C2=NNC(=O)CC2CO)cc1OC (centres unmarked) [drawing 110] falls below 40 µM? Thanks.
[out] y

[in] Dear colleague, could you confirm whether IC50 of O=C1CC(CO)C(c2ccc(OCc3cccnc3)cc2)=NN1 (centres unmarked) [drawing 114] falls below 40 µM? Thanks.
[out] y

[in] Dear colleague, could you confirm whether IC50 of N#Cc1ccc(C2=NNC(=O)CC2CO)cc1 (centres unmarked) [drawing 115] falls below 40 µM? Thanks.
[out] y

[in] Dear colleague, could you confirm whether IC50 of O=C1CC(CO)C(c2ccc(OCCn3ccnc3)cc2)=NN1 (centres unmarked) [drawing 112] falls below 40 µM? Thanks.
[out] n

----------
System: action of arachidonic acid
Assay: Influence on the action of arachidonic acid in vivo under anesthesia (Lefort and Vargaftig)
Parameters: species or system guinea pig; key: -: no action; (+): weak; +: medium; ++: strong; +++: very strong
Settings: 1-10 mg/kg i.v.
MEASUREMENT TYPE: TXA2 Effect: Thrombocytopenia

Solved cases below.
>  <COMPOUND>
CC(=O)Nc1ccc(C2=NN(C)C(=O)CC2CO)cc1 (stereo not drawn) [drawing 61]

>  <MEASUREMENT TYPE>
TXA2 Effect: Thrombocytopenia

>  <REPORTED RESULT>
(+)

$$$$
>  <COMPOUND>
O=C1CC(CO)C(c2ccc[nH]2)=NN1 (stereo not drawn) [drawing 63]

>  <MEASUREMENT TYPE>
TXA2 Effect: Thrombocytopenia

>  <REPORTED RESULT>
+++

$$$$
>  <COMPOUND>
O=C1CC(CO)C(c2ccccc2)=NN1 (stereo not drawn) [drawing 53]

>  <MEASUREMENT TYPE>
TXA2 Effect: Thrombocytopenia

>  <REPORTED RESULT>
-

$$$$
>  <COMPOUND>
O=C1CC(CO)C(c2cccc([N+](=O)[O-])c2)=NN1 (stereo not drawn) [drawing 57]

>  <MEASUREMENT TYPE>
TXA2 Effect: Thrombocytopenia

>  <REPORTED RESULT>
+

$$$$
>  <COMPOUND>
O=C1CC(CO)C(c2ccco2)=NN1 (stereo not drawn)

>  <MEASUREMENT TYPE>
TXA2 Effect: Thrombocytopenia

>  <REPORTED RESULT>
(+)

$$$$
>  <COMPOUND>
COc1ccc(C2=NNC(=O)CC2COC(=O)COc2ccc(Cl)cc2)cc1OC (stereo not drawn) [drawing 71]

>  <MEASUREMENT TYPE>
TXA2 Effect: Thrombocytopenia

>  <REPORTED RESULT>
-

$$$$
>  <COMPOUND>
Cc1nnc(COc2ccc(C3=NNC(=O)CC3CO)cc2)o1 (stereo not drawn) [drawing 58]

>  <MEASUREMENT TYPE>
TXA2 Effect: Thrombocytopenia

>  <REPORTED RESULT>
++

$$$$
>  <COMPOUND>
COc1ccc(C2=NNC(=O)CC2COC(=O)c2cccnc2)cc1OC (stereo not drawn) [drawing 59]

>  <MEASUREMENT TYPE>
TXA2 Effect: Thrombocytopenia

>  <REPORTED RESULT>
(+)

$$$$
>  <COMPOUND>
COc1ccc(C2=NNC(=O)CC2CO)cc1 (stereo not drawn) [drawing 55]

>  <MEASUREMENT TYPE>
TXA2 Effect: Thrombocytopenia

>  <REPORTED RESULT>
-

$$$$
>  <COMPOUND>
Cc1ccc(C2=NNC(=O)CC2CO)cc1 (stereo not drawn) [drawing 54]

>  <MEASUREMENT TYPE>
TXA2 Effect: Thrombocytopenia

>  <REPORTED RESULT>
(+)

$$$$

Kindly give each listed record's TXA2 Effect: Thrombocytopenia.
1. O=C1CC(CO)C(c2ccc(OCc3cccnc3)cc2)=NN1 (stereo not drawn) [drawing 73]
2. Cc1cc(COc2ccc(C3=NNC(=O)CC3CO)cc2)[nH]c(=O)c1 (stereo not drawn)
3. O=C1CC(CO)C(c2c[nH]c3ccccc23)=NN1 (stereo not drawn) [drawing 70]
4. O=C1CC(CO)C(c2ccc(Cl)cc2)=NN1 (stereo not drawn) [drawing 56]

[out]
1: +; 2: (+); 3: +++; 4: (+)

[in] Query: TXA2 Effect: Thrombocytopenia; subject: O=C1CC(CO)C(c2ccc(OCCn3ccnc3)cc2)=NN1 (stereo not drawn) [drawing 66]
[out] ++
